# target or system: T1, TNFR1 (Homo sapiens, UniProt P19438)
# T1 chain: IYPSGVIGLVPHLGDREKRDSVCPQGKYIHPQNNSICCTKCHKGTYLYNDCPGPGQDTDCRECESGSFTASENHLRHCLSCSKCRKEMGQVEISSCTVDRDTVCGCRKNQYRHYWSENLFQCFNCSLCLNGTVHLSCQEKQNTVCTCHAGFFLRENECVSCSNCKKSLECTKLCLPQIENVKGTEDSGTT
# procedure text: yeast display SC50
readout kind: apparent Kd (screen)

binder: M2A (designed binder) SAEEEVEKAAKEYEKKKKEAIEKHLEKLKAKDKEAAERFLKELEEAAKEYAKDEAKTMSEEEAKRRAKKYKEKVLLSELSEEEQKEIKEAEEKLVRTILKYVEEAAK
readout kind: apparent Kd (screen)
recorded value: 0.49 nM
//
binder: K52D (designed binder) SMEEEVEKAAKEYEKKKKEAIEKHLEKLKAKDKEAAERFLKELEEAAKEYADDEAKTMSEEEAKRRAKKYKEKVLLSELSEEEQKEIKEAEEKLVRTILKYVEEAAK
readout kind: apparent Kd (screen)
recorded value: 0.446 nM
//
binder: I87V (designed binder) SMEEEVEKAAKEYEKKKKEAIEKHLEKLKAKDKEAAERFLKELEEAAKEYAKDEAKTMSEEEAKRRAKKYKEKVLLSELSEEEQKEVKEAEEKLVRTILKYVEEAAK
readout kind: apparent Kd (screen)
recorded value: 3 nM
//
binder: K11L (designed binder) SMEEEVEKAALEYEKKKKEAIEKHLEKLKAKDKEAAERFLKELEEAAKEYAKDEAKTMSEEEAKRRAKKYKEKVLLSELSEEEQKEIKEAEEKLVRTILKYVEEAAK
readout kind: apparent Kd (screen)
recorded value: 0.49 nM
